# credit: patent US12157730B2

tested on: scanMAX kinase panel (EGFR mutant, ERBB2, ERBB4); assay: DiscoverX (eurofin) KINOMEscan (scanMAX platform) kinase profiling; type: binding; settings: EGFR(L747-E749del, A750P)
measurement_kind: % inhibition of scanMAX Kinase profiling (%)
Write it as a number; the unit % goes unstated.

Which % inhibition of scanMAX Kinase profiling value is on record for "C=CC(=O)Nc1cc(Nc2cc(N3OCC[C@@H]3c3cc(F)cc(F)c3)ncn2)c(OC)cc1N1CCC(N2CCN(CC)CC2)CC1" ? 98

What value of % inhibition of scanMAX Kinase profiling has been recorded for this entry: "C=CC(=O)Nc1cc(Nc2cc(N3OCC[C@@H]3c3ccccc3)ncn2)c(OC)cc1N(C)CCN(C)C" 97

Which % inhibition of scanMAX Kinase profiling is reported for this compound? "C=CC(=O)Nc1cc(Nc2cc(N3OCC[C@@H]3c3ccccc3)ncn2)c(OC)cc1N1CCN(C)CC1" 100
